Assignment: determine reported MIC for the given compounds.
- Tested on: A. baumannii CAN-ICU 63169
- Format: cell-based
Peptide text beside a SMILES is read from it. * marks the point of attachment. Palmitoyl = CCCCCCCCCCCCCCCC(=O)*; Lauroyl = CCCCCCCCCCCC(=O)*; Octanoyl = CCCCCCCC(=O)*

Here are 2 compounds together with their reported answers.
1) CCCCCCCC(=O)N1CCC[C@H]1C(=O)N[C@@H](CCCNC(=N)N)C(=O)N1CCC[C@H]1C(=O)N[C@@H](Cc1c[nH]c2ccccc12)C(=O)N1CCC[C@H]1C(=O)N[C@@H](CCCNC(=N)N)C(=O)N1CCC[C@H]1C(N)=O [Compound C8-PWP, CH3(CH2)6CO-PRPWPRP-NH2] (Octanoyl-PRPWPRP-NH2) :: >128 µg/mL
2) CCCCCCCCCCCCCCCC(=O)N1CCC[C@H]1C(=O)N[C@@H](CCCNC(=N)N)C(=O)N1CCC[C@H]1C(=O)N[C@@H](CC(C)C)C(=O)N1CCC[C@H]1C(=O)N[C@@H](CCCNC(=N)N)C(=O)N1CCC[C@H]1C(N)=O [Compound C16-PLP, CH3(CH2)14CO-PRPLPRP-NH2] (Palmitoyl-PRPLPRP-NH2) :: 128 µg/mL

Now let's try a different one.
Which MIC is reported for this compound? CCCCCCCCCCCC(=O)N1CCC[C@H]1C(=O)N[C@@H](CCCNC(=N)N)C(=O)N1CCC[C@H]1C(=O)NCC(=O)N1CCC[C@H]1C(=O)N[C@@H](CCCNC(=N)N)C(=O)N1CCC[C@H]1C(N)=O [Compound C12-PGP, CH3(CH2)10CO-PRPGPRP-NH2] (Lauroyl-PRPGPRP-NH2)
>128 µg/mL

====

Exercise: state measured MIC for each of the molecules provided.
- System: E. coli CAN-ICU 63074 (amikacin-intermediate resistant)
- Format: cell-based
Peptide text beside a SMILES is read from it. * marks the point of attachment. Acetyl(1-adamantyl) = O=C(CC12CC3CC(CC(C3)C1)C2)*; Octanoyl = CCCCCCCC(=O)*

1. N=C(N)NCCC[C@H](NC(=O)[C@@H]1CCCN1C(=O)CNC(=O)[C@@H]1CCCN1C(=O)[C@H](CCCNC(=N)N)NC(=O)[C@@H]1CCCN1C(=O)CC12CC3CC(CC(C3)C1)C2)C(=O)N1CCC[C@H]1C(N)=O [Ad-PGP, Adamantyl-CH2CO-PRPGPRP-NH2] ({Acetyl(1-adamantyl)}-PRPGPRP-NH2) :: >128 µg/mL

Moving on to the next molecule.
# MIC lookup, item CCCCCCCC(=O)N1CCC[C@H]1C(=O)N[C@@H](CCCNC(=N)N)C(=O)N1CCC[C@H]1C(=O)N[C@@H](Cc1c[nH]c2ccccc12)C(=O)N1CCC[C@H]1C(=O)N[C@@H](CCCNC(=N)N)C(=O)N1CCC[C@H]1C(N)=O [Compound C8-PWP, CH3(CH2)6CO-PRPWPRP-NH2] (Octanoyl-PRPWPRP-NH2)
>128 µg/mL

====

- System: methicillin-susceptible Staphylococcus epidermidis CANWARD-2008 81388
- Format: cell-based
- EXPERIMENTAL CONTEXT: methicillin-susceptible CANWARD-2008 81388
- Description: The synthesized SPRLPs were evaluated for their antibacterial potency against a panel of Gram-positive and Gram-negative bacteria (Tables 2 & 3). Some of the included pathogens were collected from patients visiting or admitted to participating Canadian hospitals through the CAN-ICU (27) and CANWARD (28) national surveillance studies. Antibacterial activity was assessed using minimum inhibitory concentration (MIC) against various clinical pathogens. […]
Peptide text beside a SMILES is read from it. * marks the point of attachment. Acetyl(1-adamantyl) = O=C(CC12CC3CC(CC(C3)C1)C2)*; Palmitoyl = CCCCCCCCCCCCCCCC(=O)*; Octanoyl = CCCCCCCC(=O)*
ASSAY ENDPOINT: MIC

Below: 2 molecules and their reported MIC.
1. N=C(N)NCCC[C@H](NC(=O)[C@@H]1CCCN1C(=O)[C@H](Cc1c[nH]c2ccccc12)NC(=O)[C@@H]1CCCN1C(=O)[C@H](CCCNC(=N)N)NC(=O)[C@@H]1CCCN1C(=O)CC12CC3CC(CC(C3)C1)C2)C(=O)N1CCC[C@H]1C(N)=O [Ad-PWP, Adamantyl-CH2CO-PRPWPRP-NH2] ({Acetyl(1-adamantyl)}-PRPWPRP-NH2) :: >128 µg/mL
2. CCCCCCCCCCCCCCCC(=O)N1CCC[C@H]1C(=O)N[C@@H](CCCNC(=N)N)C(=O)N1CCC[C@H]1C(=O)NCC(=O)N1CCC[C@H]1C(=O)N[C@@H](CCCNC(=N)N)C(=O)N1CCC[C@H]1C(N)=O [Compound C16-PGP, CH3(CH2)14CO-PRPGPRP-NH2] (Palmitoyl-PRPGPRP-NH2) :: 8 µg/mL

We next turn to a different molecule, shown below.
Please give the measured MIC for this molecule: CCCCCCCC(=O)N1CCC[C@H]1C(=O)N[C@@H](CCCNC(=N)N)C(=O)N1CCC[C@H]1C(=O)N[C@@H](CC(C)C)C(=O)N1CCC[C@H]1C(=O)N[C@@H](CCCNC(=N)N)C(=O)N1CCC[C@H]1C(N)=O [Compound C8-PLP, CH3(CH2)6CO-PRPLPRP-NH2] (Octanoyl-PRPLPRP-NH2)
>128 µg/mL
